All values here come from ChEMBL document CHEMBL4152200.

I'd be grateful if you could share measured IC50 for these entries.
target-of-assay: UniProt:Q72547
A number alone suffices; assume nM.

Value of IC50 reported for the compound "Cc1cc(C)c(Oc2cc(Nc3ccc(C#N)cc3)ncc2C(=O)NCc2cn(CC(=O)N3CCOCC3)nn2)c(C)c1" is 1570

response.value for "Cc1cc(C)c(Oc2cc(Nc3ccc(C#N)cc3)ncc2C(=O)NCc2cn(CC(=O)N3CCCC3)nn2)c(C)c1" (field: IC50) = 2700

---

test-method-notes: Selectivity index, ratio of CC50 for human MT4 cells to EC50 for HIV1 harboring reverse transcriptase F227L/V106A mutant
Format: toxicity
reported-conditions: read-out: Ratio CC50/EC50
Mark rule met for reported selectivity ratio of 30 or greater; mark rule not met for anything smaller.

Has "Cc1cc(C)c(Oc2cc(Nc3ccc(C#N)cc3)ncc2C(=O)NCc2cn(CCCO)nn2)c(C)c1" a recorded selectivity ratio greater than or equal to 30?
rule met

Given "Cc1cc(C)c(Oc2cc(Nc3ccc(C#N)cc3)ncc2C(=O)NCc2cn(CC(N)=O)nn2)c(C)c1" , state whether its selectivity ratio is at least 30.
rule not met

Say whether "Cc1cc(C)c(Oc2cc(Nc3ccc(C#N)cc3)ncc2C(=O)NCc2cn(CC(=O)N3CCCC3)nn2)c(C)c1" shows selectivity ratio of 30 or more.
rule met

Has "CC(=O)Cn1cc(CNC(=O)c2cnc(Nc3ccc(C#N)cc3)cc2Oc2c(C)cc(C)cc2C)nn1" a recorded selectivity ratio greater than or equal to 30?
rule met

// inclusive: selectivity ratio at least 30? input: "Cc1cc(C)c(Oc2cc(Nc3ccc(C#N)cc3)ncc2C(=O)NCc2cn(CCC#N)nn2)c(C)c1"
rule met

Does selectivity ratio meet or surpass 30 for "Cc1cc(C)c(Oc2cc(Nc3ccc(C#N)cc3)ncc2C(=O)NCc2cn(CC(=O)N3CCOCC3)nn2)c(C)c1" ?
rule met
